Every entry's value here was drawn from the supplement of paper PMC10567573.

B1: TRIM43 (parent)
chain: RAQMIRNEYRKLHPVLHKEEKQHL

Variants of: B1
Assay: protein stability index of a GFP-peptide fusion (GPS, HEK-293T) (PSI 1-6); higher = more stable;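 note: lentivirally expressed fusions sorted by FACS into six bins by GFP to DsRed ratio, PSI derived from sequencing read proportions per bin multiplied by bin number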
Conditions: c terminus: a fixed tail appended
Hi there, I'd appreciate the recorded protein stability index for every entry that follows.
Field format: numeric only.

Reported protein stability index, variant `L16I` : ____ 3.31

Recorded protein stability index for `Q22R` , please? 3.62

Quick one: protein stability index of `K21I` ? 2.59

Which value of protein stability index has been reported for `N7D` in the records? 3.35

Given the entry `Q3K` , report its measured protein stability index. 3.7

protein stability index for `L16V` ? 4.07

Given the entry `K11R` , report its measured protein stability index. 3.4

Item `K11N` has what recorded protein stability index? 3.68
